B1: CPEB3 Ribozyme (parent)
chain: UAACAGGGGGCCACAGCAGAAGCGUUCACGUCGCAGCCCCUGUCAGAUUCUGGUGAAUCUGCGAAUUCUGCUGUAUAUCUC

variants of: B1; test: self-cleavage, relative activity (ratio to wild type); higher = more cleavage; in vitro, sequencing
outcomeMeasure: self-cleavage
# respond with the number and nothing more

The examples below pair each entry with its known result.
mutantid="A57G G73U" obsvalue=1.15
mutantid="U25G U26C" obsvalue=0.33
mutantid="G8U A35U" obsvalue=0.27
mutantid="U54G A77G" obsvalue=0.74

Would you kindly look at the next entry?
Notebook: A5U C32A , self-cleavage read as 0.32
